FYI, the data here is from patent US8614208B2.

molecular target: Smo (Mus musculus, UniProt P56726); construct: endogenous in cells; host or cells: NIH-3T3 cells stably carrying the Gli reporter plasmid; assay: Gli reporter luciferase assay in NIH-3T3/Gli reporter cells stimulated with mouse Shh-N end fragment; assay type: cell-based; details: NIH3T3; 1 μM compound; NIH-3T3/Gli reporter cells with mouse Shh-N culture supernatant, 48 hr; luciferase activity, control without compound as 100; read-out: inhibitory rate (%) at 1 μM
Sequence (P56726 33-793): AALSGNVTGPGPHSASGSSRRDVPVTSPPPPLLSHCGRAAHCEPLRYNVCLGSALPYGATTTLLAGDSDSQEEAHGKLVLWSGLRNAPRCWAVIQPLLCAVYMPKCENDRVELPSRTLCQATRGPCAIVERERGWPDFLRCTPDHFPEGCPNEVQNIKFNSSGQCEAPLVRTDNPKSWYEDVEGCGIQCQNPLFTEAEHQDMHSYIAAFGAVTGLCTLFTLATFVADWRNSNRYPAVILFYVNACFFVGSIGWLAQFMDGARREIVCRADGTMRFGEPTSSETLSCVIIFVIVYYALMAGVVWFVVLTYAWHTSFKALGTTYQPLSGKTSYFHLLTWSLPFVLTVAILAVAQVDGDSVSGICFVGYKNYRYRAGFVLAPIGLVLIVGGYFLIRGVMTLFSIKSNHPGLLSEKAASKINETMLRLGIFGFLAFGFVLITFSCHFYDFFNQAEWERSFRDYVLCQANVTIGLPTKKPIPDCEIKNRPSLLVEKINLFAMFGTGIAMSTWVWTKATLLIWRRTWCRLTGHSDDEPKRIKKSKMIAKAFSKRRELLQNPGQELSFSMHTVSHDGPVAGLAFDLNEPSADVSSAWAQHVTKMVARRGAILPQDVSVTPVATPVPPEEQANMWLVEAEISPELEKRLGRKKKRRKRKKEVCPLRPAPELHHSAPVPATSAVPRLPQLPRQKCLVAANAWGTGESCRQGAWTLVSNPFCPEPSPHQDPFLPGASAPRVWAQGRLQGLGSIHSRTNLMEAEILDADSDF
Listed here: items and their measured inhibition at 1 µM.
# unit: % | format: bare number

Known inhibition at 1 µM results, listed for orientation:
# molecule, assayTarget, testReadout, resultUnit, measuredValue
data = [
    ("COc1cccc(Cn2c(C)nc3c(c(OCC(F)(F)F)c(C(=O)NC4CCN(C(=O)CO)CC4)n3C)c2=O)c1", "Smo (Mus musculus, UniProt P56726)", "inhibition at 1 µM", "%", 97),
    ("Cc1nc2c(c(OCC(F)(F)F)c(C(=O)NC3CCN(C(=O)CO)CC3)n2C)c(=O)n1CCc1ccccc1", "Smo (Mus musculus, UniProt P56726)", "inhibition at 1 µM", "%", 98),
    ("CCc1nc2c(c(OCC(F)(F)F)c(C(=O)NC3CC[S+]([O-])CC3)n2C)c(=O)n1CC(=O)c1ccccc1 (stereo not shown)", "Smo (Mus musculus, UniProt P56726)", "inhibition at 1 µM", "%", 97),
    ("Cc1nc2c(c(OC(C)C)c(C(=O)NC3CCN(C(=O)CO)CC3)n2C)c(=O)n1CC(=O)c1ccccc1", "Smo (Mus musculus, UniProt P56726)", "inhibition at 1 µM", "%", 93),
]

Looking up Cc1nc2c(c(OCC(F)(F)F)c(C(=O)NC3CCN(C(=O)CO)CC3)n2C)c(=O)n1CC(=O)c1ccccc1 , I found its inhibition at 1 µM recorded as 98

Looking up COc1ccccc1Cn1c(C)nc2c(c(OCC(F)(F)F)c(C(=O)NC3CCN(C(=O)CO)CC3)n2C)c1=O , I found its inhibition at 1 µM recorded as 96

Looking up Cc1nc2c(c(OC(C)C)c(C(=O)NC3CCN(C(=O)CO)CC3)n2C)c(=O)n1-c1ccccc1 , I found its inhibition at 1 µM recorded as 99
